Where do these numbers come from? They come from patent US20170369523A1.

measurement.notes: in vitro
Assay type: cell-based
experimental.endpoint: GI50

Return reported GI50; argument: CC(C)C[C@@H]1NC(=O)[C@@H]2CSSC[C@H](NC(=O)[C@H](CC(=O)O)NC(=O)[C@@H]3CCCN3C(=O)[C@@H](CCC(=O)O)NC1=O)C(=O)N[C@@H](Cc1ccccc1)C(=O)N[C@@H](Cc1c[nH]c3ccccc13)C(=O)N[C@@H](CCCCN)C(=O)N[C@@H](Cc1ccc(O)cc1)C(=O)N2 [compound 30]
> 50 µM

For the molecule CC(C)C[C@@H]1NC(=O)[C@@H]2CSSC[C@H](NC(=O)[C@H](CC(=O)O)NC(=O)[C@@H]3CCCN3C(=O)[C@H]3CCCN3C1=O)C(=O)N[C@@H](Cc1ccc(O)cc1)C(=O)N[C@@H](Cc1c[nH]c3ccccc13)C(=O)N[C@@H](CCCCN)C(=O)N[C@@H](Cc1ccc(O)cc1)C(=O)N2 [compound 33] , what GI50 is on record?
> 50 µM

Value lookup for GI50; key = CC(C)[C@@H]1NC(=O)[C@@H]2CSSC[C@H](NC(=O)[C@H](CC(=O)O)NC(=O)[C@@H]3CCCN3C(=O)[C@H]3CCCN3C1=O)C(=O)N[C@@H](Cc1ccccc1)C(=O)N[C@@H](Cc1c[nH]c3ccccc13)C(=O)N[C@@H](CCCCN)C(=O)N[C@@H](Cc1ccc(O)cc1)C(=O)N2 [compound 31]
> 50 µM

For the molecule shown here, CC(C)[C@@H]1NC(=O)[C@@H]2CSSC[C@H](NC(=O)[C@H](CC(=O)O)NC(=O)[C@@H]3CCCN3C(=O)[C@H]3CCCN3C1=O)C(=O)N[C@@H](Cc1ccccc1)C(=O)N[C@H](Cc1c[nH]c3ccccc13)C(=O)N[C@@H](CCCCN)C(=O)N[C@@H](Cc1ccc(O)cc1)C(=O)N2 [compound 34] , give the reported GI50.
> 50 µM

Requested read-out: GI50. Entry: CC(C)C[C@@H]1NC(=O)[C@@H]2CSSC[C@H](NC(=O)[C@H](CC(=O)O)NC(=O)[C@@H]3CCCN3C(=O)[C@@H](CO)NC1=O)C(=O)N[C@@H](Cc1ccccc1)C(=O)N[C@@H](Cc1c[nH]c3ccccc13)C(=O)N[C@@H](CCCCN)C(=O)N[C@@H](Cc1ccc(O)cc1)C(=O)N2 [Ex. 28]
> 50 µM
